Sourced from patent US20170355757A1

ASSAYED SYSTEM: T1, monkey C5-mmh (monkey, UniProt P01031 19-1676 (human entry), limits assumed)
T1 construct: Expressed with a C-terminal myc-myc-hexahistidine tag
T1 chain: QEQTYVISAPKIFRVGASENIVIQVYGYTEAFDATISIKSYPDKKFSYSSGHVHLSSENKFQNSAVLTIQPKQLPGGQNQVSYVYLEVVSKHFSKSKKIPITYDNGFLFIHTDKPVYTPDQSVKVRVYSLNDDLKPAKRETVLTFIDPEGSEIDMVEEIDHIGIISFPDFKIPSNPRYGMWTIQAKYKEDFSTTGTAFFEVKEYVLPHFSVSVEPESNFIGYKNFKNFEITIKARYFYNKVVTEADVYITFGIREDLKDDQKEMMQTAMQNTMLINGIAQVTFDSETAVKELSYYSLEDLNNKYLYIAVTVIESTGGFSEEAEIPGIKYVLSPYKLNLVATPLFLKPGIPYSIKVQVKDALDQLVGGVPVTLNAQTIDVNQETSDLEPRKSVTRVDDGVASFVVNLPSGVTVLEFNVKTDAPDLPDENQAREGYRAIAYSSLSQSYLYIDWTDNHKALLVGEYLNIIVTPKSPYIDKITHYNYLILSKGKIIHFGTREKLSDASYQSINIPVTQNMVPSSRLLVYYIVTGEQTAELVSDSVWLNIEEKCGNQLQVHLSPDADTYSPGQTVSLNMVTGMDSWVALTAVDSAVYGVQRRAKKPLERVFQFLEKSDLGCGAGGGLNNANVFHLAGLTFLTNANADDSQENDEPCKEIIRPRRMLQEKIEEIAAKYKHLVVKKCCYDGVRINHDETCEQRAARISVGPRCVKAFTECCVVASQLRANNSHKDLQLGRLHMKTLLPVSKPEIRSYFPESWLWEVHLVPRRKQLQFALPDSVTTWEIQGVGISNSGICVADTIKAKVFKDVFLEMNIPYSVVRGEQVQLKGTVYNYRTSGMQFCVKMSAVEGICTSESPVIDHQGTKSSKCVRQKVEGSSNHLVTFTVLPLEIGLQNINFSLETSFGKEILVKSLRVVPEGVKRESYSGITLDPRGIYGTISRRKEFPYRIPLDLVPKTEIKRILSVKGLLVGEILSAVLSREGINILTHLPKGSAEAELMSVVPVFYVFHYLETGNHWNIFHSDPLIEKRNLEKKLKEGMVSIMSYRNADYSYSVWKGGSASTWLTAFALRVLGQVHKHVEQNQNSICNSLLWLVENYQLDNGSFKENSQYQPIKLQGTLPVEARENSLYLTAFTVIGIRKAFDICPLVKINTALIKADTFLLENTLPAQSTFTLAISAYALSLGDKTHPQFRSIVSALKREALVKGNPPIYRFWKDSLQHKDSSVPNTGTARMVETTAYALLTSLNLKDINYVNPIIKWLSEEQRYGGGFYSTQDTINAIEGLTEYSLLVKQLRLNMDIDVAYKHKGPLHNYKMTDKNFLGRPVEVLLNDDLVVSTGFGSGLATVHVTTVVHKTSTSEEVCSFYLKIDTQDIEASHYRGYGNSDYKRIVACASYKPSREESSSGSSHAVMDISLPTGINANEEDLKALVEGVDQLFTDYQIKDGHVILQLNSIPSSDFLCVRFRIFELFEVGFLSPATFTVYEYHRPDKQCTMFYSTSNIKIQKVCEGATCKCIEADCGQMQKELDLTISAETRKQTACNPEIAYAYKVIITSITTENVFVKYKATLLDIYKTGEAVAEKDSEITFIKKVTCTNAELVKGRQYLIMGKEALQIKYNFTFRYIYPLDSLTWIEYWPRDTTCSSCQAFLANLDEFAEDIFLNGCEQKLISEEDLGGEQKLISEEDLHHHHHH
TEST DESCRIPTION: SPR, mAb captured by anti-hFc, 25C
QUANTITY NAME: pKd
Just the number, please; pKd means minus log10 of the concentration in mol/L.

{"BINDER": "H4H12161P (antibody, human IgG4, V domains shown) VH: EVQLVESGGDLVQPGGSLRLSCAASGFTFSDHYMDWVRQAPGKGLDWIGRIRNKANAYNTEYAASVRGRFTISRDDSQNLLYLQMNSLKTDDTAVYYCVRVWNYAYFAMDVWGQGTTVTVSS VL: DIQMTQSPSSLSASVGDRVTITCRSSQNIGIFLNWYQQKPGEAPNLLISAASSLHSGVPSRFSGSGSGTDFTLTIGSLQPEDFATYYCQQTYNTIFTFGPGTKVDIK", "pKd": 9.41}

Lookup: Which pKd reading was recorded for the binder H4H12166P4 (antibody, human IgG4, V domains shown, human IgG4 Fc with S108P hinge mutation) VH: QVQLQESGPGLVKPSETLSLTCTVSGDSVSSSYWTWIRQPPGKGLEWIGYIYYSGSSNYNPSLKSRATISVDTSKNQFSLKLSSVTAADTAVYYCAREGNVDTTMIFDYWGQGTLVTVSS VL: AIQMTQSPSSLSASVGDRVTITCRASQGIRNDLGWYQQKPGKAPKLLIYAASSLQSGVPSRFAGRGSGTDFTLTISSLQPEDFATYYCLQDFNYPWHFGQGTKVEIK ?
Found: 8.07
